# Lookup of reported phosphorylation enrichment keyed by entry
# Test system: Fer (mouse);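 also: 11-residue human phosphosite peptides and single-mutation variants displayed on the E. coli surface, counted by deep sequencing, each peptide's frequency after selection divided by its frequency in the unselected input library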;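 also: frequency after pTyr selection over input frequency; kinase dosed for 20-30% of maximal phosphorylation in three min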
# experiment-notes: phosphorylation enrichment, bacterial display (enrichment ratio); higher = better substrate or ligand; peptides without Tyr show the background
Hey, just send me the number, nothing else.

Record excerpt, results attached:
# sequence-record, phosphorylation enrichment
records = [
    ("HLQDEYDFKCK [STAT1_Y170_D165H]", 0.471),
    ("NTADFYDLFGG [PTPN11_Y63_G60A_YF]", 1.6),
    ("VDTLWYKFLKR [EPM2A_Y86_F84L]", 0.466),
    ("NDPMEYAKQHG [ASS1_Y163_L160P]", 0.426),
    ("CTTIHYNYTCN [TP53_Y234_M237T]", 0.476),
    ("EKAEVYGSENE [RIOK2_Y348]", 0.457),
]

**Query** Record request: phosphorylation enrichment value, item CTTIHHNYMCN [TP53_Y234_Y234H]
**Result** 0.412
